readoutType: logP
// no unit string in output, number only

smiles: Clc1ccc(N2CCNCC2)cc1
logP: 2.01
--
smiles: Clc1ccccc1N1CCNCC1
logP: 2.13
--
smiles: c1ccc2c(N3CCNCC3)nsc2c1
logP: 2.14
--
smiles: c1cnc(N2CCNCC2)nc1
logP: 0.49
--
smiles: c1ccc2nc(N3CCNCC3)ccc2c1
logP: 2.04

// below: logP requested for another compound
Value of logP reported for the compound c1ccc(N2CCNCC2)cc1 is 1.1

###

Response field label: string, one of Met (logP strictly below 1) or Not met.

Check out these entries, answers already filled in.
smiles: FC(F)(F)c1cccc(N2CCNCC2)c1
labelClass: Not met
--
smiles: Cc1ccccc1N1CCNCC1
labelClass: Not met
--
smiles: Fc1ccc(N2CCNCC2)cc1
labelClass: Not met
--
smiles: Clc1cccc(N2CCNCC2)c1
labelClass: Not met
--
smiles: COc1ccccc1N1CCNCC1
labelClass: Not met
--
smiles: c1csc(N2CCNCC2)n1
labelClass: Met
--
smiles: Fc1ccnc(N2CCNCC2)n1
labelClass: Met

Request: Determine if c1ccc(N2CCNCC2)nc1 shows logP strictly lower than 1.
Response: Met
